- method-summary: qHTS for Inhibitors of Cell Surface uPA Generation: Confirmatory Assay for Cherry-picked Compounds
- condition-summary: cell surface uPA activity generation, qHTS confirmation; series mostly up to 115 µM
Results filed as inconclusive are left out. The source made the active and inactive calls. The call rests on the fitted dose curve; in most records, active means well fitted activation curve with a large enough effect; inconclusive means small, poorly fitted or top-dose-only effect; inactive means flat fitted curve, though single readings scatter.
readout-label: outcome

>  <molecule>
COc1cccc(CN(C)C(=O)c2cc(S(=O)(=O)N3CCCC3)ccc2C)c1OC

>  <outcome>
inactive

$$$$
>  <molecule>
Cc1ccccc1S(=O)Cc1ccc(C(=O)N2CCN(C(=O)c3ccco3)CC2)o1 (centres undefined)

>  <outcome>
inactive

$$$$
>  <molecule>
O=C(O)c1cc(N=Nc2c(O)[nH]c3ccc([N+](=O)[O-])cc23)ccc1Cl

>  <outcome>
inactive

$$$$
>  <molecule>
CC(C)(C)OC(=O)NCCCCCNC(=O)c1[nH]cnc1C(=O)Nc1ccc(Cl)cc1

>  <outcome>
inactive

$$$$
>  <molecule>
COc1ccc(N2CC(C(=O)Nc3nnc(SCCC4OCCO4)s3)CC2=O)cc1 (centres undefined)

>  <outcome>
inactive

$$$$
>  <molecule>
COc1cc(NC(=O)CSc2nnc3ccc(-c4ccncc4)nn23)cc(OC)c1

>  <outcome>
inactive

$$$$
>  <molecule>
NC(=O)C1CCN(C(=O)c2cccc3ccccc23)CC1

>  <outcome>
inactive

$$$$
>  <molecule>
O=C(COC(=O)c1cc([N+](=O)[O-])ccc1NCCO)NCc1cccs1

>  <outcome>
inactive

$$$$
>  <molecule>
CC1Cc2nc(SCC(=O)N3CCCC3)n(C)c(=O)c2S1 (centres undefined)

>  <outcome>
inactive

$$$$
>  <molecule>
COc1ccc(CNCCC2(C(C)C)CCOC(C)(C)C2)cc1 (centres undefined)

>  <outcome>
inactive

$$$$

The value of outcome measured for the molecule `NC(=O)c1ccc(NC(=O)CN2CCN(S(=O)(=O)c3ccc4ccccc4c3)CC2)cc1` turned out to be inactive

The value of outcome measured for the molecule `Cc1cc(COc2ccccc2)oc1C(=O)O` turned out to be inactive

The value of outcome measured for the molecule CC1Cc2nc(SCC(=O)Nc3ccc4c(c3)OCO4)n(-c3ccc(F)cc3)c(=O)c2S1 (centres undefined) turned out to be inactive

The value of outcome measured for the molecule `Oc1ccc(/C=N/Nc2cccc(Cl)n2)c(O)c1` turned out to be inactive

Origin of values: PubChem BioAssay AID720519
